# key: entry, value: Ki
- Measured On: cabbage phospholipase D (cPLD, EC 3.1.4.4)
- Procedure Text: Purified cabbage PLD activity (choline release from PC), enzyme kinetics with lipids
- Condition Notes: cPLD 3 u/reaction, 30° C., PC 0.5-5 mM; Ki from Slope = Km/Vm (1 + [I]/Ki)
Be sure to follow the number with its unit.

CC(C)=CCC/C(C)=C/CC/C(C)=C/C1C(COP(=O)(O)OP(=O)(O)O)C1(C)CC/C=C(\C)CCC=C(C)C (stereo in doubt) [Presqualene diphosphate, presqualene diphosphate]    20 nM

Which Ki is reported with cabbage phospholipase D (cPLD, EC 3.1.4.4) for this entry: CC(C)=CCC/C(C)=C/CC/C(C)=C/C1C(COP(=O)(O)O)C1(C)CC/C=C(\C)CCC=C(C)C (stereo in doubt) [Presqualene monophosphate, presqualene monophosphate] ?
3210 nM

Taken from patent US6864288B2.
